assay: chemical genetic growth profiling, strain panel (AID 1159580);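 further: tested at 20 µM; growth read once vehicle control cultures reached saturation at 30 °C; 1 = growth at the plate median or of vehicle wells; lower values mean less growth of the strain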; details: S. cerevisiae deletion strains, growth OD, locus YLR384C, strain iki3, hits give low values
The campaign covered roughly 5,500 compounds. About 2,000 (36%) were called active. Roughly 18% stayed inconclusive and do not appear here. The list shows a part of the results.
We begin with a simple list: items and their reported normalized growth.

molecule	normalized growth
CC(Cc1cccc(C(F)(F)F)c1)NCCOC(=O)c1ccccc1 (stereo not drawn)	0.988
COc1ccc2cc(CCC(C)=O)ccc2c1	0.986
Oc1c(Cl)cc(Cl)cc1Sc1cc(Cl)cc(Cl)c1O	0.0584
O=C(CC(=O)c1ccccc1)c1ccccc1	0.437
O=C(OCc1ccccc1)c1ccccc1	0.974
CS(=O)(=O)c1ccc([C@@H](O)[C@@H](CO)NC(=O)C(Cl)Cl)cc1	1.02
CC12CCC(=O)C=C1CCC1C2[C@@H](O)CC2(C)C1CC[C@]2(O)C(=O)COP(=O)(O)O (stereo partly drawn)	0.995
NCC(=O)c1ccccc1	1.01
CCOC(=O)NNc1nncc2ccccc12	0.989
Cc1cn[nH]c1	1.01
NC1=NCCN1CC(=O)O	1.01
COc1cc(C(C)=O)cc(OC)c1O	1.01
O=C(OOC(=O)c1ccccc1)c1ccccc1	0.954

====

test: chemical genetic growth profiling, strain panel (AID 1159580); details: S. cerevisiae deletion strains, growth OD, locus YCL011C, strain gbp2, hits give low values
The campaign covered roughly 5,500 compounds. About 2,000 (36%) were called active. Roughly 18% stayed inconclusive and do not appear here. Some of the results follow.
property_measured: normalized growth

compound	result
O=C(OCc1ccccc1)c1ccccc1	0.978 (inactive)
COC(=O)/C(=C1\OC(=O)C(c2ccccc2)=C1O)c1ccccc1	0.979 (inactive)
CC(C)(C)NC[C@H](O)c1ccc(O)c(CO)c1	1.02 (inactive)
CC(C)=CCc1c2c(c3occ(-c4ccc(O)cc4)c(=O)c3c1O)C=CC(C)(C)O2	0.881 (active)
CC(C)=CCc1c2c(c3occ(-c4ccc(O)c(O)c4)c(=O)c3c1O)C=CC(C)(C)O2	0.944 (inactive)
O=P1(N(CCCl)CCCl)NCCCO1 (stereo unspecified)	1.01 (inactive)

====

experiment: chemical genetic growth profiling, strain panel (AID 1159580); conditions: S. cerevisiae deletion strains, growth OD, locus YLL026W, hits give low values
The campaign covered roughly 5,500 compounds. About 2,000 (36%) were called active. About 18% were inconclusive and are not listed. Some of the results follow.

compound	normalized growth
O=C(OCc1ccccc1)c1ccccc1	0.953
C[n+]1ccccc1/C=N/O	0.996
O=C(OOC(=O)c1ccccc1)c1ccccc1	0.974
O=C(O)C1=CCCNC1	0.994
Cc1cc(=O)oc2cc(O)c(O)cc12	0.989
C=C1c2cccc(O)c2C(O)=C2C(=O)[C@]3(O)C(O)=C(C(N)=O)C(=O)[C@@H](N(C)C)[C@@H]3[C@@H](O)[C@H]12	1.02
CCN1CCN(C(=O)NC(C(=O)N[C@@H]2C(=O)N3[C@@H]2SC(C)(C)[C@@H]3C(=O)O)c2ccccc2)C(=O)C1=O (stereo partly drawn)	1.01
O=C(CC(=O)c1ccccc1)c1ccccc1	0.373
COc1ccccc1OCC(O)CO (stereo not drawn)	1.02
C[C@H]1c2cccc(O)c2C(O)=C2C(=O)[C@]3(O)C(O)=C(C(N)=O)C(=O)[C@@H](N(C)C)[C@@H]3[C@@H](O)[C@@H]21	0.991
COC1CC2CCC(C)C(O)(O2)C(=O)C(=O)N2CCCCC2C(=O)OC(C(C)CC2CCC(O)C(OC)C2)CC(=O)C(C)/C=C(\C)C(O)C(OC)C(=O)C(C)CC(C)/C=C/C=C/C=C/1C (stereo not drawn)	0.0565
CC(CCC(=O)O)[C@H]1CCC2C3CC[C@@H]4C[C@H](O)CC[C@]4(C)C3C=C[C@@]21C (stereo partly drawn)	1.01
CN(C)C(=O)Oc1cccc([N+](C)(C)C)c1	1
Cc1nc(N)cc(C[n+]2csc(CCO)c2C)n1	0.988
Cc1cc(=O)[nH]c(=S)[nH]1	0.979
CC1=CC(=O)c2ccccc2C1=O	0.997
NCC(N)C(=O)c1ccccc1 (stereo not drawn)	1.03
CC1=CC(=O)c2c(O)cccc2C1=O	0.0541
C=C1c2c(Cl)ccc(O)c2C(O)=C2C(=O)[C@]3(O)C(O)=C(C(N)=O)C(=O)[C@@H](N(C)C)[C@@H]3[C@@H](O)[C@H]12	0.996
CC(=O)Oc1ccc(/C=C/c2cc(OC(C)=O)cc(OC(C)=O)c2)cc1	0.976
CN[C@@H]1[C@H](O)[C@H](NC)[C@H]2O[C@@]3(O)C(=O)C[C@@H](C)O[C@H]3O[C@@H]2[C@H]1O	1
CC(=O)Oc1ccc(C(c2ccc(OC(C)=O)cc2)c2ccccn2)cc1	1.02
Cc1cn[nH]c1	1.02
N[C@@H](CCC(=O)N[C@@H](CS)C(=O)NCC(=O)O)C(=O)O	0.975
Cc1c(C)c2c(c(C)c1O)CCC(C)(CCCC(C)CCCC(C)CCCC(C)C)O2 (stereo not drawn)	0.982
NC(Cn1ccc(=O)c(O)c1)C(=O)O (stereo not drawn)	1.01
Cc1cc(=O)oc2cc(O)cc(O)c12	0.97
CCN(CC)CCOC(=O)C1(C2CCCCC2)CCCCC1	0.997

====

assay: chemical genetic growth profiling, strain panel (AID 1159580);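 further: tested at 20 µM; growth read once vehicle control cultures reached saturation at 30 °C; 1 = growth at the plate median or of vehicle wells; lower values mean less growth of the strain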; details: S. cerevisiae deletion strains, growth OD, locus YMR205C, strain PFK2 (second series)
About 2,000 (36%) of roughly 5,500 compounds were called active. Roughly 18% stayed inconclusive and do not appear here. Cut-off read from the data, not from the text of the source: active = normalized growth mostly below about 0.91 (no sharp cut-off); inconclusive = no clear call, values can overlap the other calls; inactive = mostly above about 0.92. This is one part of the list.
Classes used: YES (active), NO (inactive)

compound	cat
Cc1c(C)c(C)c(C(=O)c2ccc(N=Cc3cc(Cl)cc(Cl)c3O)cc2)c(C)c1C	YES
Cc1cc(/C(N)=N\OC(=O)C(C)(C)C)cc(/C(N)=N\OC(=O)C(C)(C)C)c1	NO
CC(C)(C)c1cc(C(=O)Nc2ccc3c(c2)OCO3)n(Cc2ccc(F)cc2)n1	NO
N/C(Cc1cccc2ccccc12)=N/OC(=O)c1ccc(Cl)cc1	NO
CC(C)(C)c1cc(C(=O)NNc2cccc(Cl)c2)n(Cc2ccccc2)n1	NO
OC(COc1ccc(F)cc1)(c1ccc(Cl)cc1)c1ccc(Cl)cc1	NO
Cc1ccc(-c2csc(-c3ccncc3)n2)cc1	NO
O=[N+]([O-])c1cccc(C2CC(c3ccccc3)=Nc3ccccc3S2)c1 (centres undefined)	NO
Clc1ccc(SCc2ccsc2-c2ncns2)cc1	NO
Brc1ccc(-c2csc(-c3ccncc3)n2)cc1	NO
O=C(Nc1cccc(Cl)c1)O/N=C1\CCCc2occc21	NO
COc1c(Br)csc1C(=O)O/N=C(/N)c1cc(C(F)(F)F)cc(C(F)(F)F)c1	NO
Cc1ccc2nc(-c3ccc4c(c3)OCCO4)cn2c1	NO
O=S(=O)(Oc1ccc(-c2csnn2)cc1)c1ccccc1Cl	NO
CCOC(=O)/C(C#N)=C(\Nc1ccc(C(=O)OCC)cc1)SC	NO
O=C1c2cccc3c(Sc4ccccc4)ccc(c23)C(=O)N1NCCO	NO
CC(=O)c1ccc(Cl)c(N=Cc2cc(Cl)cc(Cl)c2O)c1	YES
Clc1ccc(CN2CCN(c3cccc4[nH]ccc34)CC2)cc1Cl	NO
CC(=O)c1ccc(Cl)c(N=Cc2cc(Br)cc(Br)c2O)c1	YES

====

We begin with a simple list: items and their reported normalized growth.
test: chemical genetic growth profiling, strain panel (AID 1159580);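 further: tested at 20 µM; growth read once vehicle control cultures reached saturation at 30 °C; 1 = growth at the plate median or of vehicle wells; lower values mean less growth of the strain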; conditions: S. cerevisiae deletion strains, growth OD, locus YGR092W, strain DBF2, hits give low values
Hit rate of the full screen: of about 5,500 compounds, about 2,000 (36%) were called active. Inconclusive results (about 18%) are left out. The list shows a part of the results.

compound_structure_string	normalized growth
O=C(Nc1ccc(F)cc1F)c1cc(Cl)c(-n2cccc2)c(Cl)c1	0.942
Cc1cc(/C(N)=N\OC(=O)C(C)(C)C)cc(/C(N)=N\OC(=O)C(C)(C)C)c1	1.02
Cc1onc(-c2c(Cl)cccc2Cl)c1C(=O)O/N=C(/N)Cc1ccc(C(C)(C)C)cc1	0.983
CCOC(=O)/C(C#N)=C(\Nc1ccc(C(=O)OCC)cc1)SC	0.947
NC(=S)N/N=C1/CCCc2ccccc21	0.814
COc1c(Br)csc1C(=O)O/N=C(/N)c1cc(C(F)(F)F)cc(C(F)(F)F)c1	1
Cc1onc(-c2c(F)cccc2Cl)c1/C(N)=N\OC(=O)c1ccc(C(C)(C)C)cc1	1
CSc1n[nH]c(-c2cc(C(C)(C)C)oc2C)c1C#N	0.78

====

We begin with a simple list: items and their reported normalized growth.
test: chemical genetic growth profiling, strain panel (AID 1159580);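 further: tested at 20 µM; growth read once vehicle control cultures reached saturation at 30 °C; 1 = growth at the plate median or of vehicle wells; lower values mean less growth of the strain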; settings: S. cerevisiae deletion strains, growth OD, locus YJL115W, strain asf1, hits give low values
Among all 5,500 compounds or so, about 2,000 (36%) were called active. Roughly 18% stayed inconclusive and do not appear here. The list shows a part of the results.

molecule	normalized growth
CC(=O)OCC(=O)[C@@]1(O)[C@H](C)CC2C3CCC4=CC(=O)C=C[C@]4(C)[C@@]3(F)[C@@H](O)C[C@@]21C (stereo partly specified)	0.951
NC1=NCCN1CC(=O)O	1.02
CCOC(=O)NNc1nncc2ccccc12	1.03
NC(=O)NC(=O)Cc1ccccc1	0.957
CCC(C)[C@H]1O[C@]2(C=C[C@@H]1C)C[C@@H]1C[C@@H](C/C=C(\C)[C@@H](OC3C[C@H](OC)C(O[C@H]4C[C@H](OC)[C@@H](O)[C@H](C)O4)[C@H](C)O3)[C@@H](C)/C=C/C=C3\CO[C@@H]4[C@H](O)C(C)=C[C@@H](C(=O)O1)[C@]34O)O2 (stereo partly specified)	1
O=C(O)c1ccc(S(=O)(=O)N(Cl)Cl)cc1	0.969
NCC(=O)c1ccccc1	1
CCCc1cc(=O)[nH]c(=S)[nH]1	1.02
O=C(CC(=O)c1ccccc1)c1ccccc1	0.546
Cc1cc(=O)[nH]c(=S)[nH]1	0.97
O=C(OCc1ccccc1)c1ccccc1	0.959
